# IC50 annotations
# target_desc: UniProt P22303
# assay_protocol: biochemical
# experimental_context: IC50, AChE 0.25 UI/mL, pH 8, 25°C, triplicate
quantity_name: IC50

# compound, target_desc, quantity_name, recorded_value
rows = [
    ("COc1cc(O)c2c(c1)OC(c1ccc(O)cc1)CC2=O (stereo not drawn) [Compound 1, 4′,5-Dihydroxy-7-methoxyflavanone]", "UniProt P22303", "IC50", "> 100 µM"),
    ("COc1ccc(/C=C/C(=O)c2c(OC)cc(OC)cc2OC)cc1 [Compound 3, (E)-2′,4,4′,6′-Tetramethoxychalcone]", "UniProt P22303", "IC50", "> 100 µM"),
    ("O=C1C[C@@H](c2ccc(O)cc2)Oc2cc(O)cc(O)c21", "UniProt P22303", "IC50", "150 µM"),
]

* * *

# assay_protocol: Solubility in water and solvents (compound description)
# experimental_context: methanol

# compound, Solubility in methanol
data = [
    ("O=C(/C=C/c1ccc(OCc2ccccc2)cc1)c1c(OCc2ccccc2)cc(OCc2ccccc2)cc1OCc1ccccc1 [Compound 9, (E)-2′,4,4′,6′-Tetrabenzyloxychalcone]", "slightly soluble"),
    ("CCOc1ccc(/C=C/C(=O)c2c(O)cc(OCC)cc2OCC)cc1 [Compound 4, (E)-2′,4,4′-Triethoxy-6′-hydroxychalcone]", "slightly soluble"),
]

* * *

# assay_protocol: Solubility in water and solvents (compound description)
# experimental_context: acetone
quantity_name: Solubility in acetone

# compound, quantity_name, recorded_value
data = [
    ("COc1ccc(/C=C/C(=O)c2c(OC)cc(OC)cc2OC)cc1 [Compound 3, (E)-2′,4,4′,6′-Tetramethoxychalcone]", "Solubility in acetone", "soluble"),
    ("C=CCOc1ccc(/C=C/C(=O)c2c(O)cc(OCC=C)cc2OCC=C)cc1", "Solubility in acetone", "soluble"),
    ("C=CCOc1ccc(C2CC(=O)c3c(O)cc(OCC=C)cc3O2)cc1 (centres unmarked) [Compound 6, 4′,7-Diallyloxy-5-hydroxyflavanone]", "Solubility in acetone", "soluble"),
    ("O=C(/C=C/c1ccc(OCc2ccccc2)cc1)c1c(O)cc(OCc2ccccc2)cc1OCc1ccccc1", "Solubility in acetone", "soluble"),
    ("COc1ccc(C2CC(=O)c3c(O)cc(OC)cc3O2)cc1 (centres unmarked) [Compound 2, 5-Hydroxy-4′,7-dimethoxyflavanone]", "Solubility in acetone", "soluble"),
    ("CCOc1ccc(/C=C/C(=O)c2c(O)cc(OCC)cc2OCC)cc1 [Compound 4, (E)-2′,4,4′-Triethoxy-6′-hydroxychalcone]", "Solubility in acetone", "soluble"),
    ("O=C(/C=C/c1ccc(OCc2ccccc2)cc1)c1c(OCc2ccccc2)cc(OCc2ccccc2)cc1OCc1ccccc1 [Compound 9, (E)-2′,4,4′,6′-Tetrabenzyloxychalcone]", "Solubility in acetone", "soluble"),
]

* * *

# pIC50 annotations
# target_desc: AChE (Homo sapiens, UniProt P22303)
# Sequence (P22303 32-614): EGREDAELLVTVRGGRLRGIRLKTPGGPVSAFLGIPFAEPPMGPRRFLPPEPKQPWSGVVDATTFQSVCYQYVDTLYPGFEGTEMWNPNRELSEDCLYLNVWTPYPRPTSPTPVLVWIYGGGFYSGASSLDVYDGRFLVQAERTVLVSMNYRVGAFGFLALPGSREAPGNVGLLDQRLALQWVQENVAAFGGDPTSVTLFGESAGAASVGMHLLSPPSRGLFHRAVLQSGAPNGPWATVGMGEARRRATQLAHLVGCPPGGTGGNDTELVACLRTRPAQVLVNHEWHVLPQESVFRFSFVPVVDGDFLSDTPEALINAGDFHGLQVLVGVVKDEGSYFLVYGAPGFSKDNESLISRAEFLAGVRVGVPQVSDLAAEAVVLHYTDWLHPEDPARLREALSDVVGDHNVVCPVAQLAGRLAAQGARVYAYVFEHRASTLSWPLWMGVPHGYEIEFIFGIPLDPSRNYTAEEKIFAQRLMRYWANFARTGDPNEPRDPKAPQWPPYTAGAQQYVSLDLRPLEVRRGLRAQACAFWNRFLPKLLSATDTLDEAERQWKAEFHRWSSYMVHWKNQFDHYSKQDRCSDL
# assay_protocol: biochemical
# experimental_context: AChE 0.25 UI/mL, pH 8, 25°C, triplicate; read-out: IC50
pIC50: −log10 of the molar value.

# compound, pIC50
data = [
    ("O=C(/C=C/c1ccc(OCc2ccccc2)cc1)c1c(OCc2ccccc2)cc(OCc2ccccc2)cc1OCc1ccccc1 [Compound 9, (E)-2′,4,4′,6′-Tetrabenzyloxychalcone]", "< 4.00"),
    ("O=C(/C=C/c1ccc(OCc2ccccc2)cc1)c1c(O)cc(OCc2ccccc2)cc1OCc1ccccc1", "< 4.00"),
    ("C=CCOc1ccc(C2CC(=O)c3c(O)cc(OCC=C)cc3O2)cc1 (stereo not drawn) [Compound 6, 4′,7-Diallyloxy-5-hydroxyflavanone]", "< 4.00"),
]

All figures here come from paper PMC8651387.
